Reference for the values: patent US9199927B2

Recorded pIC50 for the following molecules
# MEASUREMENT_TARGET: mouse trypsin (m-trypsin)
# METHOD_SUMMARY: Inhibitory activity of trypsin enzyme (mouse trypsin purified from small intestine contents, BZiPAR fluorescent substrate)
# CONDITION_DETAILS: mouse trypsin diluted 1/50, BZiPAR substrate, 30 minutes at room temperature
Structures can show the parent of a compound that is named as a salt.
Kindly note that pIC50 refers to -log10 of the concentration in mol/L and answer with the value alone.

Sample records with pIC50:
N=C(N)Nc1ccc(C(=O)Oc2ccc3nc(C(=O)N[C@@H](Cc4ccc(OCC(=O)O)cc4)C(=O)O)ccc3c2)cc1 [Example 71]
9.64
N=C(N)Nc1ccc(C(=O)Oc2ccc(CCCC(=O)N(CC(=O)O)Cc3cccc(C(=O)O)c3)c(Cl)c2)cc1 [Example 51]
9.33
N=C(N)Nc1ccc(C(=O)Oc2ccc(CC(=O)N[C@@H](Cc3c[nH]cn3)C(=O)O)c(Cl)c2)cc1 [Example 2, hydrochloride]
9.31
N=C(N)Nc1ccc(C(=O)Oc2cc(F)c(CC(=O)N[C@@H](Cc3ccccc3)C(=O)O)c(F)c2)cc1 [Example 24]
9.77

Ask: Can you share its pIC50? I mean this molecule: N=C(N)Nc1ccc(C(=O)Oc2cc(Cl)c(CC(=O)N[C@@H](Cc3ccccc3)C(=O)O)c(Cl)c2)cc1 [Example 27]
Reply: 9.72

Ask: Next molecule up: N=C(N)Nc1ccc(C(=O)Oc2ccc3nc(C(=O)Nc4ccc(CC(=O)O)cc4)ccc3c2)cc1 [Example 22]
Reply: 9.70
